Assay: Rotating rod test (sedative/muscle relaxant properties), i.v.
Assay type: in vivo
Details: Mus musculus, iv, 0.25 h, mice, 15 min after administration, read-out: Rotating rod test, ED50, 15 min after administration
measurement kind: ED50

[
  {
    "compound": "CCCCN(CCCC)Cc1nnc(-c2ncn3c2[C@@H]2CCN2C(=O)c2sccc2-3)o1 [N]",
    "measurement": "> 10 mg/kg"
  },
  {
    "compound": "CCN(CC)Cc1nc(-c2ncn3c2CN(C)C(=O)c2c(Cl)cccc2-3)no1 [K]",
    "measurement": "≥ 10 mg/kg"
  },
  {
    "compound": "CN1Cc2c(-c3noc(CN4CCCCC4)n3)ncn2-c2ccc(F)cc2C1=O [C]",
    "measurement": "≥ 10 mg/kg"
  },
  {
    "compound": "CCCN(CCC)Cc1nnc(-c2ncn3c2CN(C)C(=O)c2c(Cl)cccc2-3)o1 [L]",
    "measurement": "> 10 mg/kg"
  },
  {
    "compound": "CCCN(CCC)Cc1nc(-c2ncn3c2CN(C)C(=O)c2ccccc2-3)no1 [F]",
    "measurement": "> 10 mg/kg"
  },
  {
    "compound": "CC(C)N(Cc1nc(-c2ncn3c2CN(C)C(=O)c2ccccc2-3)no1)C(C)C [O]",
    "measurement": "> 10 mg/kg"
  },
  {
    "compound": "CCCN(CCC)Cc1nnc(-c2ncn3c2CN(C)C(=O)c2cc(F)ccc2-3)o1 [G]",
    "measurement": "≥ 10 mg/kg"
  },
  {
    "compound": "CCN(CC)Cc1nc(-c2ncn3c2[C@@H]2CCN2C(=O)c2sccc2-3)no1 [M]",
    "measurement": "> 10 mg/kg"
  },
  {
    "compound": "CCCN(CCC)Cc1nc(-c2ncn3c2CN(C)C(=O)c2c(F)cccc2-3)no1 [J]",
    "measurement": "> 10 mg/kg"
  }
]
